Entry source: patent US20260028403A1

system_under_test: huCD28 (human, UniProt P10747 19-152, limits assumed)
experimental_protocol: SPR, OAA format
Each entry gets 0 if its kon stays under 60000 M⁻¹ s⁻¹, and 1 if its kon is 60000 M⁻¹ s⁻¹ or above.

# binder, class_label
records = [
    ("v37856 (antibody, V domains shown, OAA format; also called huTN228 N1111AA (VH) OAA) VH: QVQLQESGPGLVKPSETLSLTCAVSGFSLTSYGVHWIRQPPGKGLEWLGVIWPGGGTNFNSALMSRLTISEDTSKNQVSLKLSSVTAADTAVYYCARDRAYGAYLYAMDYWGQGTLVTVSS VL: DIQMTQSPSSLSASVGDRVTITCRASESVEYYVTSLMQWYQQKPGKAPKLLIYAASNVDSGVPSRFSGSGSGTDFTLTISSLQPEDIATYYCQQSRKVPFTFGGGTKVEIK", 0),
    ("v37898 (antibody, V domains shown, OAA format as v34891) VH: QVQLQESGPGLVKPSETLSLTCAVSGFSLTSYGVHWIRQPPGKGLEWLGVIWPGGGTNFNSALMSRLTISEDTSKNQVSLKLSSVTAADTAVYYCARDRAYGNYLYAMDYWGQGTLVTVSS VL: DIQMTQSPSSLSASVGDRVTITCRASESVEYYVTSLLNWYQQKPGKAPKLLIYAASNVDSGVPSRFSGSGSGTDFTLTISSLQPEDIATYYCQQSRKVPFTFGGGTKVEIK", 1),
    ("v37844 (antibody, V domains shown, OAA format as v34891; also called huTN228 S1036A (VH) OAA) VH: QVQLQESGPGLVKPSETLSLTCAVSGFSLTAYGVHWIRQPPGKGLEWLGVIWPGGGTNFNSALMSRLTISEDTSKNQVSLKLSSVTAADTAVYYCARDRAYGNYLYAMDYWGQGTLVTVSS VL: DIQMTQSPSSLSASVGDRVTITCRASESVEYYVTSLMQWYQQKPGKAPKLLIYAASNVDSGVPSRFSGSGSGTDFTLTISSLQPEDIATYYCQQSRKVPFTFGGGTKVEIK", 0),
]
